pIC50: −log10 of the molar value.
The compounds below each have a reported pIC50 tested on Adenosine receptor A1 (Rattus norvegicus, UniProt P25099); the values come from various publications.
Sequence (P25099 whole entry): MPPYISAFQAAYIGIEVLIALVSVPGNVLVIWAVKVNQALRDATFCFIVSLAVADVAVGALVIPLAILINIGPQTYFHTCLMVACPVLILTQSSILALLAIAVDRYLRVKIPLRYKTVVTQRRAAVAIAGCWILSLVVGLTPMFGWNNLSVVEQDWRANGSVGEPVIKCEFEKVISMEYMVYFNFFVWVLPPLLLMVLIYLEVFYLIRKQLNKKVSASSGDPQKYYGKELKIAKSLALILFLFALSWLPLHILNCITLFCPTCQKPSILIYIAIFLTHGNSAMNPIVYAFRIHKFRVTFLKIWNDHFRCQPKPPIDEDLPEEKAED

| COMPOUND | pIC50 |
| --- | --- |
| CCCn1c(=O)c2nc(-c3ccc(OCC(=O)O)cc3)[nH]c2n(CCc2ccc(N)cc2)c1=O | 7.80 |
| CC(C)[C@H]1/C=C/[C@](C)(O)C/C=C/[C@@](C)(O)CC[C@@H]2O[C@@]2(C)CC1 | 3.52 |
| Cc1cccc(Nc2ncnc3c2ncn3C2O[C@H](CO)[C@@H](O)[C@H]2O)c1 (some centres undefined) | 7.57 |
| CCCn1c(=O)c2[nH]c(-c3ccc(S(=O)(=O)O)cc3)nc2n(CCC)c1=O | 6.92 |
| O=C(NCCSSCCNC(=O)/C(Cc1ccc(O)c(Br)c1)=N/O)/C(Cc1ccc(O)c(Br)c1)=N/O | 4.70 |
| CCCc1ccccc1Nc1ncnc2c1ncn2C1OC(CO)[C@@H](O)[C@H]1O (single isomer, unassigned) | 7.28 |
| CCCn1c(=O)c2nc(-c3ccc(S(=O)(=O)NCCCCN(C)C)cc3)[nH]c2n(CCC)c1=O | 8.12 |
| CCn1c(=O)c2[nH]c(-c3cccc(S(=O)(=O)O)c3)nc2n(CC)c1=O | 4.51 |
| CCCn1c(=O)c2nc(-c3ccc(S(=O)(=O)NCCCC(=O)OCC)cc3)[nH]c2n(CCC)c1=O | 7.73 |
